Target: PI3K α (p110α/p85α) (Homo sapiens, UniProt P42336)
Construct: purchased Upstate / Millipore Corporation
Sequence (P42336 whole entry): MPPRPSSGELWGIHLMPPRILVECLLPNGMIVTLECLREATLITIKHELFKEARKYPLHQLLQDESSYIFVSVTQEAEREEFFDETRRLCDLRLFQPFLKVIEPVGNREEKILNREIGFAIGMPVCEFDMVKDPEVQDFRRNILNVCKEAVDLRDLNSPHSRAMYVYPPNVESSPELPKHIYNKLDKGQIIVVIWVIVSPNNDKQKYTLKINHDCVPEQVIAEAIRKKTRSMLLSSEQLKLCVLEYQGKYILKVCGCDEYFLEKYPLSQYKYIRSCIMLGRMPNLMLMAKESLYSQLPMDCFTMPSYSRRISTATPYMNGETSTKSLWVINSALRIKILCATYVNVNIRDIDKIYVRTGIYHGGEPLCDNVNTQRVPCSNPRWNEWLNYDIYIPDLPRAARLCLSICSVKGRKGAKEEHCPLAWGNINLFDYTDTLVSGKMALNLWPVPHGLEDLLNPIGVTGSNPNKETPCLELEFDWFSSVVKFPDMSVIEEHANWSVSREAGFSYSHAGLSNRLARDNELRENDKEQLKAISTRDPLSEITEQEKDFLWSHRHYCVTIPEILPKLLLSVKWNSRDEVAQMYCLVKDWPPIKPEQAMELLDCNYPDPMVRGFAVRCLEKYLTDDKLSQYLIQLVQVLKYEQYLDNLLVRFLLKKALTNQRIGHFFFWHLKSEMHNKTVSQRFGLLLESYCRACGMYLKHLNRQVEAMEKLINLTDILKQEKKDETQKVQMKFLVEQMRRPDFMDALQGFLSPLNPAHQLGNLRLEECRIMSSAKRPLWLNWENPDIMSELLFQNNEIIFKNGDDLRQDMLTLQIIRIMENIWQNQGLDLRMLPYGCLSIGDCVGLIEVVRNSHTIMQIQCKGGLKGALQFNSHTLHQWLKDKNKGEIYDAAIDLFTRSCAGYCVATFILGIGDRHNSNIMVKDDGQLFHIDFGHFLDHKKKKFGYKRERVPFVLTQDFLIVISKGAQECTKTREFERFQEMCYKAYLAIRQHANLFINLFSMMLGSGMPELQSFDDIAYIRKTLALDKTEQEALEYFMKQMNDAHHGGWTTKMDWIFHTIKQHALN
Sequence (P27986 whole entry partner): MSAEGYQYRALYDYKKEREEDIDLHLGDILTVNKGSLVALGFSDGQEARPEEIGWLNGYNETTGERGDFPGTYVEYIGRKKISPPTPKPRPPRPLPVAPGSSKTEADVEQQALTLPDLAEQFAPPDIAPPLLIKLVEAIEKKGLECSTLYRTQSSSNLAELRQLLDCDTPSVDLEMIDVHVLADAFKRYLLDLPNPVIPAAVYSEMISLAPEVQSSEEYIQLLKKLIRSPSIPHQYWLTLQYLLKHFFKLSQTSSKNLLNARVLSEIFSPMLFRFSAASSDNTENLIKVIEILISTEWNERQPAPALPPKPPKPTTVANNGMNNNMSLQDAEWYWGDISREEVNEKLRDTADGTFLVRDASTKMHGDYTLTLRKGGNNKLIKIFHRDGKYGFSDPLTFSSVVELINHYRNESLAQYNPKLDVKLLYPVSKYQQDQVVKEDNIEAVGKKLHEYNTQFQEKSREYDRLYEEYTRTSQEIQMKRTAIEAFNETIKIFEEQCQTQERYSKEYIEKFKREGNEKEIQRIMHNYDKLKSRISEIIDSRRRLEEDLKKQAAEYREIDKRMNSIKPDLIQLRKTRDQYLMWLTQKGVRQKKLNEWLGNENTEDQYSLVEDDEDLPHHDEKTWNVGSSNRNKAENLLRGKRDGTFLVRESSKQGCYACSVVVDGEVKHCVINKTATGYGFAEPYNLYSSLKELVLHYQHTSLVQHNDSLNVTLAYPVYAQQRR
Assay: PI 3-Kinase (human) HTRF assay, PI3K α
Type: biochemical
Details: read-out: PI3K α IC50
pIC50: −log10 of the molar value.
measured-parameter: pIC50

Check out these entries, answers already filled in.
- Nc1noc2c(-c3ccc4ncc(C(=O)N5CCOCC5)n4c3)cccc12 [Compound 491]: < 5.00
- Nc1nc2cc(-c3ccc4nccc(NCCN5CCOCC5)c4c3)ccc2o1 [Compound 33]: > 7.00
- Nc1nc2cc(-c3ccc4ncc(N5CCn6cncc6C5)nc4c3)ccc2o1 [Compound 394]: > 7.00
- Cc1c(-c2ccc3oc(N)nc3c2)ccc2ncc(N3CC(N4CCOCC4)C3)nc12 [Compound 383]: > 6.00
- CC(=O)N1CCC(Nc2cnc3ccc(-c4ccc5oc(N)nc5c4)cc3n2)CC1 [Compound 82]: > 7.00

I have 3 compounds here; please give me pIC50 for each one.
1. Cc1c(-c2ccc3ncc(C(=O)N4CCOCC4)n3c2)ccc2oc(N)nc12 [Compound 369]
2. CN1CC(C(=O)N2CCN(c3cnc4ccc(-c5ccc6oc(N)nc6c5)cc4n3)CC2)C1 [Compound 156]
3. C[C@@H]1CN(C(=O)C2CN(c3cnc4ccc(-c5ccc6oc(N)nc6c5)cc4n3)C2)CCN1 [Compound 267]

Reply |
1: < 5.00; 2: > 7.00; 3: > 7.00

* * *

Exercise: state measured pIC50 for each of the molecules provided.
Molecular target: PI3K γ (p110γ) (Homo sapiens, UniProt P48736)
Construct: purchased Upstate / Millipore Corporation
Sequence (P48736 whole entry): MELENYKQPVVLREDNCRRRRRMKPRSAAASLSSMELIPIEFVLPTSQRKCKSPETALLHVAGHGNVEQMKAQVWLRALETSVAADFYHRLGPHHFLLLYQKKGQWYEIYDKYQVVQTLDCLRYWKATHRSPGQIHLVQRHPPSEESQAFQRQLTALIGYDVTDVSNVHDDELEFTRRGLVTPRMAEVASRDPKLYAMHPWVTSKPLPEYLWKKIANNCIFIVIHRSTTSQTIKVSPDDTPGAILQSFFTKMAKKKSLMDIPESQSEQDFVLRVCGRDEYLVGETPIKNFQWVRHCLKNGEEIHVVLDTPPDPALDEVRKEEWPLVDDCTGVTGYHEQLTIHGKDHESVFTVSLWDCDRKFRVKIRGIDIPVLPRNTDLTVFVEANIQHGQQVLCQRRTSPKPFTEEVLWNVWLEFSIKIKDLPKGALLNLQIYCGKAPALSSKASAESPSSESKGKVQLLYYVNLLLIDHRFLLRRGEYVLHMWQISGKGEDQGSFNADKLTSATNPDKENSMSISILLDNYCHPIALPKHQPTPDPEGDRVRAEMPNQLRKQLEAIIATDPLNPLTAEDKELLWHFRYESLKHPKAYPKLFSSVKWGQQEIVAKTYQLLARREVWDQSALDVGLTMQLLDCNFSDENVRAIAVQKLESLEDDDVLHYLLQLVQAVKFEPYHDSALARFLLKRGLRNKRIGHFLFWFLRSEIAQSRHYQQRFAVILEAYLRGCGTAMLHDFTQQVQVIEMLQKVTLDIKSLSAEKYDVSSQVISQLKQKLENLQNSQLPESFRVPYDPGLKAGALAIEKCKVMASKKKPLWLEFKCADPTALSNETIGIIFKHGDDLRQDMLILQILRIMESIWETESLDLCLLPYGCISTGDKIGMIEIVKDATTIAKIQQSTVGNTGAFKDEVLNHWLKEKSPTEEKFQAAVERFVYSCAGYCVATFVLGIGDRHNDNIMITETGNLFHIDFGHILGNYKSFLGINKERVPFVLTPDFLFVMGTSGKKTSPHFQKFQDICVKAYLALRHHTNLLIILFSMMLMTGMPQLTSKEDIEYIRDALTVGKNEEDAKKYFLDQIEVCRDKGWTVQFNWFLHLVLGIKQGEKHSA
Assay: PI 3-Kinase (human) HTRF assay, PI3K γ
Assay type: biochemical
Details: Table 4 (PI3K α inhibitors); read-out: PI3K γ IC50
pIC50: −log10 of the molar value.

Check out these entries, answers already filled in.
• CN1CCN(c2ccc3ncc(-c4ccc5oc(N)nc5c4)cc3n2)CC1 = < 5.00
• Nc1nc2cc(-c3ccc4ncc(N5CC(N6CCOCC6)C5)cc4n3)ccc2o1 = > 6.00
• C[C@H]1CN(C2CN(c3cnc4ccc(-c5ccc6oc(N)nc6c5)nc4n3)C2)CCN1C [Compound 572] = < 5.00

Ask | Fill in: pIC50 of "Nc1nc2cc(-c3ccc4ncc(N5CC6CCC(C5)O6)cc4n3)ccc2o1" is ___
Reply | > 6.00

* * *

Target: PI3K γ (p110γ) (Homo sapiens, UniProt P48736)
Construct: purchased Upstate / Millipore Corporation
Assay: PI 3-Kinase (human) HTRF assay, PI3K γ
Format: biochemical
Details: read-out: PI3K γ IC50
measured-parameter: IC50

* CC(C)N1CCN(C(=O)C2CN(c3cnc4ccc(-c5ccc6oc(N)nc6c5)cc4n3)C2)CC1 [Compound 285] | < 1000 nM

I have 2 compounds here; please give me IC50 for each one.
1. CC(=O)N1CCN(C2CN(c3cnc4ccc(-c5ccc6oc(N)nc6c5)cc4n3)C2)CC1 [Compound 327]
2. CN1CCN(c2cnc3ccc(-c4ccc5oc(N)nc5c4)cc3n2)CC1 [Compound 65]

Reply |
1: < 1000 nM; 2: < 1000 nM

I have 3 compounds here; please give me IC50 for each one.
1. Nc1nc2cc(-c3ccc4sc(N)nc4c3)cc(F)c2o1 [Compound 437]
2. Cc1cc(-c2ccc3nc(N)oc3c2)cn2c(C(=O)N3CCOCC3)cnc12 [Compound 449]
3. Nc1nc2ccc(-c3ccc4ncc(C(=O)N5CCOCC5)n4c3)cc2o1 [Compound 124]

Reply |
["< 1000 nM", "< 100 nM", "< 1000 nM"]

I have 6 compounds here; please give me IC50 for each one.
1. Nc1ncc(-c2cnc3ccc(-c4ccc5oc(N)nc5c4)cc3n2)cn1 [Compound 210]
2. N#Cc1cnc2ccc(-c3ccc4oc(N)nc4c3)cc2c1-c1ccncc1 [Compound 46]
3. O=C(c1cnc2ccc(-c3cccc(NS(=O)(=O)c4ccc(F)cc4F)c3)cn12)N1CCOCC1 [Compound 454]
4. Nc1nc2cc(-c3ccc4ncc(N5CC[C@H](N6CCOCC6)C5)nc4c3)ccc2o1 [Compound 375]
5. CN1CCC(n2cnc3ccc(-c4cnc(Cl)c(NS(C)(=O)=O)c4)cc3c2=O)CC1 [Compound 526]
6. Cc1cn(C2CCN(c3cnc4ccc(-c5ccc6oc(N)nc6c5)cc4n3)CC2)cn1 [Compound 338]

Reply |
1. > 10000 nM
2. < 100 nM
3. < 10000 nM
4. < 1000 nM
5. > 10000 nM
6. < 10000 nM

I have 6 compounds here; please give me IC50 for each one.
1. CC1CN(C(=O)c2cnc3ccc(-c4ccc5oc(N)nc5c4)cn23)CCO1 (centres unmarked) [Compound 201]
2. Nc1nc2cc(-c3nc(N4CCOCC4)c4cnn(C5CCNCC5)c4n3)ccc2o1 [Compound 348]
3. CC(=O)Nc1cn2cc(-c3ccc4nccc(-c5ccncc5)c4c3)ccc2n1 [Compound 19]
4. CC(=O)Nc1ncc(-c2ccc3oc(N)nc3c2)s1 [Compound 235]
5. CS(=O)(=O)N1CCC(n2cnc3ccc(-c4ccc5oc(N)nc5c4)cc3c2=O)CC1 [Compound 67]
6. Nc1nc2cc(-c3ccc4nccc(NCCN5CCOCC5)c4c3)ccc2o1 [Compound 33]

Reply |
1: < 10000 nM; 2: < 1000 nM; 3: > 10000 nM; 4: < 10000 nM; 5: > 10000 nM; 6: < 1000 nM

* * *

Target: PI3K β (p110β/p85α) (Homo sapiens, UniProt P42338)
Construct: purchased Upstate / Millipore Corporation
Sequence (P42338 whole entry, one chain of several): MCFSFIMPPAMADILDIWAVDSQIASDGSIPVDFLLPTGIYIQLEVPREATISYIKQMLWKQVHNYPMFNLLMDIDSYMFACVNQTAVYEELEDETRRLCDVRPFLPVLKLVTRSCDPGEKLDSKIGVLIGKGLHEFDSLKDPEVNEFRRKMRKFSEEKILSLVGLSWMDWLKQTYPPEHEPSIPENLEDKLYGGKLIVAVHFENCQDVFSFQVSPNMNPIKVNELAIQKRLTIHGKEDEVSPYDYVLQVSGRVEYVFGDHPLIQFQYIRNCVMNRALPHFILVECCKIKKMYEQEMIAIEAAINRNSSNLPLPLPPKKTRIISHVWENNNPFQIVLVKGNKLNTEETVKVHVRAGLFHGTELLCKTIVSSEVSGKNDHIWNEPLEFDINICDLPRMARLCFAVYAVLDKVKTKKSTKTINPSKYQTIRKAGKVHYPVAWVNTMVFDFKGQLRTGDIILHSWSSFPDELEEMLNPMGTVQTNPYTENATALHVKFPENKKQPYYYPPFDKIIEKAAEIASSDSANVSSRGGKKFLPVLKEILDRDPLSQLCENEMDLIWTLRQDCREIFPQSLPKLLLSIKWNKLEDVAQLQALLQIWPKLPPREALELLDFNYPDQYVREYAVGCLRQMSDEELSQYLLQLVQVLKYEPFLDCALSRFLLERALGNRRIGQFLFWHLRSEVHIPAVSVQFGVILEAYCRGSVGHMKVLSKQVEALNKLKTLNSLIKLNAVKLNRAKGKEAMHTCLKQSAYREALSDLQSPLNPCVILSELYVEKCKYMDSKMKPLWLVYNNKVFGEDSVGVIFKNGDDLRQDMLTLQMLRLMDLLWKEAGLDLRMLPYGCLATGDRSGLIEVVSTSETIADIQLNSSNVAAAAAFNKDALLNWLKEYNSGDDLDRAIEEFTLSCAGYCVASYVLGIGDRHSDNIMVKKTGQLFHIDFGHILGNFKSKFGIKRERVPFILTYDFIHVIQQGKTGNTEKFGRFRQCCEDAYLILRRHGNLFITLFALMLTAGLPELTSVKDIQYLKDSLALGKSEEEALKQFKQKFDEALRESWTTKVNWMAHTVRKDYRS
Assay: PI 3-Kinase (human) HTRF assay, PI3K β
Assay type: biochemical
Details: read-out: PI3K β IC50
pIC50: −log10 of the molar value.
measured-parameter: pIC50

* CN1CCN(c2ccnc3ccc(-c4ccc5oc(N)nc5c4)cc23)CC1 | > 5.00
* CN1CC2CN(C(=O)c3cnc4ccc(-c5ccc6oc(N)nc6c5)cn34)CC2C1 (stereo not drawn) | > 6.00
* Nc1nc2cc(-c3ccc4ncc(N5CC(N6CCN(C7CC7)CC6)C5)nc4c3)ccc2o1 | > 5.00
* CN1CCC(Nc2cnc3ccc(-c4ccc5oc(N)nc5c4)cc3n2)CC1 | > 6.00
* O=C(c1cnc2ccc(-c3ccnc4[nH]ncc34)cn12)N1CCOCC1 | < 5.00

I have 3 compounds here; please give me pIC50 for each one.
1. O=C(c1cnc2ccc(-c3cnc(Cl)c(NS(=O)(=O)c4ccccc4F)c3)cn12)N1CCOCC1
2. Nc1cn2cc(-c3ccc4nc(N)oc4c3)ccc2n1
3. CN(C)C1CCN(c2cnc3ccc(-c4ccc5oc(N)nc5c4)cc3n2)CC1

Reply |
1: > 6.00; 2: > 5.00; 3: > 7.00

* * *

Molecular target: PI3K β (p110β/p85α) (Homo sapiens, UniProt P42338)
Construct: purchased Upstate / Millipore Corporation
Experiment: PI 3-Kinase (human) HTRF assay, PI3K β
Format: biochemical
Settings: read-out: PI3K β IC50
pIC50: −log10 of the molar value.
Exercise: state measured pIC50 for each of the compounds provided.

Check out these entries, answers already filled in.
* Nc1nc2cc(-c3ccc4ncc(C(=O)N5CCCCC5)n4c3)ccc2o1 | > 5.00
* CN1CCN(c2cnc3ccc(-c4ccc5nc(N)sc5c4)cc3n2)CC1 | > 7.00
* Nc1nc2cc(-c3ccc4ncc(NC5CCOCC5)nc4c3)ccc2o1 | > 5.00
* Nc1nc2cc(-c3ccc4ncc(N5CC(N6CCN(CCO)CC6)C5)nc4c3)ccc2o1 | > 5.00
* CN(C)CC(=O)N1CCC(Nc2ncnc3ccc(-c4ccc5oc(N)nc5c4)cc23)CC1 | > 6.00
* Nc1nc2cc(-c3ccc4ncc(N5CCOCC5)n4n3)ccc2o1 | > 6.00
* CO[C@H]1CCN(C(=O)c2cnc3ccc(-c4ccc5oc(N)nc5c4)cn23)C1 | > 5.00

Ask | Fill in: pIC50 of "Nc1nc2cc(-c3ccc4ncc(-c5ccnc(N6CCOCC6)c5)nc4c3)ccc2o1" is ___
Reply | < 5.00

* * *

Target: PI3K δ (Homo sapiens)
Construct: purchased Upstate / Millipore Corporation
Sequence (O00329 whole entry, one chain of several): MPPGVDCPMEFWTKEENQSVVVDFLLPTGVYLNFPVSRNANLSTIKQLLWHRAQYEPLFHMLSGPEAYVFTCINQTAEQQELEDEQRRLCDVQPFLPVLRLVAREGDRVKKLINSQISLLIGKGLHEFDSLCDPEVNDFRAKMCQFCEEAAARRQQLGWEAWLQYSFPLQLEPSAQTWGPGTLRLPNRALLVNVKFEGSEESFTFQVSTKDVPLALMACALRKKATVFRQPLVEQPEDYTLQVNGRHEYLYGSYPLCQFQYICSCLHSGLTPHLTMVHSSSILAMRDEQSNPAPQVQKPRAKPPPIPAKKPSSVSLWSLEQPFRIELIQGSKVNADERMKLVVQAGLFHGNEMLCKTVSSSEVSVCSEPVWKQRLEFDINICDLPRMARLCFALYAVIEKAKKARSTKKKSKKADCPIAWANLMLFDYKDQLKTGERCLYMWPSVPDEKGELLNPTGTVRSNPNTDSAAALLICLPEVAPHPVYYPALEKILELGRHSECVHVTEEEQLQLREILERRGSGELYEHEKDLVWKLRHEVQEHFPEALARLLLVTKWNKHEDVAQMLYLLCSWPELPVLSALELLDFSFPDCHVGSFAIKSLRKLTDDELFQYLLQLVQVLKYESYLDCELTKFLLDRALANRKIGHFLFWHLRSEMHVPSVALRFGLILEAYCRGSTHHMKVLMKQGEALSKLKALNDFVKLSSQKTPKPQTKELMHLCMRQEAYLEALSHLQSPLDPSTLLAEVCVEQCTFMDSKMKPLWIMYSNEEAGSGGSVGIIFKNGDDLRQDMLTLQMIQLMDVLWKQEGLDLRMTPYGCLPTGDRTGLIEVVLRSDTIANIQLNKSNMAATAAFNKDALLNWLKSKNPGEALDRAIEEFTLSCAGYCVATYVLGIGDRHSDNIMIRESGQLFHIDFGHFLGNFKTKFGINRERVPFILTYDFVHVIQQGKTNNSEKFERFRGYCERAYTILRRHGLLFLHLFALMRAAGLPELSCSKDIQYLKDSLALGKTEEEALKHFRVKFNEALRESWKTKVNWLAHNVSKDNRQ
Assay: PI 3-Kinase (human) HTRF assay, PI3K δ
Format: biochemical
Details: read-out: PI3K δ IC50
Exercise: state measured IC50 for each of the molecules provided.

Check out these entries, answers already filled in.
* CS(=O)(=O)N1CCN(C(=O)c2cnc3ccc(-c4ccc5oc(N)nc5c4)cn23)CC1 | < 10 µM
* Nc1nc2cc(-c3ccc4ncc(C(=O)N5CCC(O)CC5)n4c3)ccc2o1 | > 10 µM
* COc1ncc(-c2ccc3ncn(C4CCN(C)CC4)c(=O)c3c2)cc1NS(=O)(=O)c1ccccc1 | < 0.1 µM
* Nc1nc2cc(-c3ccc4ncc(N5CCOCC5)n4n3)ccc2o1 | > 10 µM
* CN1CCC(NC(=O)c2cnc3ccc(-c4ccc5oc(N)nc5c4)cn23)CC1 | < 0.1 µM

I have 5 molecules here; please give me IC50 for each one.
1. CN1CCN(C(=O)C2CN(c3cnc4ccc(-c5ccc6oc(N)nc6c5)cc4n3)C2)CC1 [Compound 253]
2. CC(C)N1CCC(n2cnc3ccc(-c4cnc(Cl)c(NS(=O)(=O)c5ccccc5)c4)cc3c2=O)CC1
3. Nc1nc2ccc(-c3cc(F)c4oc(N)nc4c3)cc2o1
4. CN1CCN(C(=O)c2cnc3ccc(-c4ccc5oc(N)nc5c4)cc3n2)CC1
5. C[C@@H]1CN(C2CN(C(=O)c3cnc4ccc(-c5ccc6oc(N)nc6c5)cn34)C2)CCN1

Reply |
1: < 10 µM; 2: < 0.1 µM; 3: < 10 µM; 4: > 10 µM; 5: < 1 µM

I have 2 molecules here; please give me IC50 for each one.
1. Nc1nc2cc(-c3cc4nccc(-c5ccncc5)c4s3)ccc2o1
2. Cc1c(-c2ccc3oc(N)nc3c2)ccc2ncc(C(=O)N3CCOCC3)n12

Reply |
["> 10 µM", "> 10 µM"]

I have 5 molecules here; please give me IC50 for each one.
1. Nc1nsc2ccc(-c3ccc4nccc(-c5ccncc5)c4c3)cc12
2. Nc1nc2cc(-c3ccc4ncc(=O)[nH]c4c3)ccc2o1
3. CCN1CCN(c2cnc3ccc(-c4ccc5oc(N)nc5c4)cc3n2)C(=O)C1
4. CC(C)N1CCC(n2cnc3ccc(-c4cncc(NS(=O)(=O)c5ccc(F)cc5F)c4)cc3c2=O)CC1
5. CC(=O)Nc1nc2ccc(-c3ccc4nccc(-c5ccncc5)c4c3)cc2s1

Reply |
> 10 µM
> 10 µM
> 10 µM
< 10 µM
> 10 µM
